Target: T1, cyno TfR extracellular domain (analogous construct to human TfR ecd) (cynomolgus monkey, UniProt Q5RDH6 87-760 (Pongo abelii entry))
T1 construct: also called cynoTfR ecd
T1 chain: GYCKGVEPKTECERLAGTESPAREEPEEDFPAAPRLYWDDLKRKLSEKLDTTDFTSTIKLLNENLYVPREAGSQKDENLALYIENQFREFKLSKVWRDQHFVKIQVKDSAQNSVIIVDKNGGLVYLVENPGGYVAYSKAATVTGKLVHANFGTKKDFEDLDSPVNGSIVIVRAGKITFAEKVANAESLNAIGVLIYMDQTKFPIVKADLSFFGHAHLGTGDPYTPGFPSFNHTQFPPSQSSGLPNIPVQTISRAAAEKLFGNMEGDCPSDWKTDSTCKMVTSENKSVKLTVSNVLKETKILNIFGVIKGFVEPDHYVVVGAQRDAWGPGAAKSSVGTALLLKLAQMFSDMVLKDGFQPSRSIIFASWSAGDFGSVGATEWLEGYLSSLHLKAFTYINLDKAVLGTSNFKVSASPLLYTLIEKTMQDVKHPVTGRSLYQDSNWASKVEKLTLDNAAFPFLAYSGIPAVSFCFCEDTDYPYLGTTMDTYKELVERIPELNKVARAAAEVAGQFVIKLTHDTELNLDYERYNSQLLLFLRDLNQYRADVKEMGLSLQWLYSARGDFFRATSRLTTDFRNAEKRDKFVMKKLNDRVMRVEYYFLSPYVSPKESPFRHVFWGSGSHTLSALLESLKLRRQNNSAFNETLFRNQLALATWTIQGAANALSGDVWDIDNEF
Test: ELISA, TfR-coated plate, IgG in culture supernatant;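 note: human or cynomolgus TfR coated at 2 µg/mL, supernatant IgG titrated in 1:5 steps for 1 h, bound antibody read with HRP anti-human Fcγ and TMB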
Values of EC50 strictly less than 1 ng/mL map to true (1), and values of at least 1 ng/mL map to false (0).

These recorded examples may help you get a feel for the data.
>  <Binder>
hu15G11.v5 IgG Ala variant M34A (HVR-H1) (antibody, name in Kabat numbering, V domains shown, IgG in cell culture supernatant) VH: EVQLVQSGAEVKKPGASVKVSCKASGYTFTSYWAHWVRQAPGQRLEWIGEINPTNGRTNYIEKFKSRATLTVDKSASTAYMELSSLRSEDTAVYYCARGTRAYHYWGQGTMVTVSS VL: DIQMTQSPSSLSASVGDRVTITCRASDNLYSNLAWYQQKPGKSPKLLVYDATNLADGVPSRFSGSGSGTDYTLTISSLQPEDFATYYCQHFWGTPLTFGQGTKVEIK

>  <Group>
false (0)

$$$$
>  <Binder>
hu15G11.v5 IgG Ala variant I60A (HVR-H2) (antibody, name in Kabat numbering, V domains shown, IgG in cell culture supernatant; Kabat numbers after 52a lie one below the linear count) VH: EVQLVQSGAEVKKPGASVKVSCKASGYTFTSYWMHWVRQAPGQRLEWIGEINPTNGRTNYAEKFKSRATLTVDKSASTAYMELSSLRSEDTAVYYCARGTRAYHYWGQGTMVTVSS VL: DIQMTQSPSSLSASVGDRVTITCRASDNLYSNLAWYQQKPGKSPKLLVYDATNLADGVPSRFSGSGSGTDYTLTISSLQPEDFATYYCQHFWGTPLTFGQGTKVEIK

>  <Group>
true (1)

$$$$
>  <Binder>
hu15G11.v5 IgG Ala variant L33A (HVR-L1) (antibody, V domains shown, IgG in cell culture supernatant) VH: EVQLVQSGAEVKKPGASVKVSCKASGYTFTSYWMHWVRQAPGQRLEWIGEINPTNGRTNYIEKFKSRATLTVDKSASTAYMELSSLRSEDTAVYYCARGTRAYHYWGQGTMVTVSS VL: DIQMTQSPSSLSASVGDRVTITCRASDNLYSNAAWYQQKPGKSPKLLVYDATNLADGVPSRFSGSGSGTDYTLTISSLQPEDFATYYCQHFWGTPLTFGQGTKVEIK

>  <Group>
true (1)

$$$$

Query :: Lab note: EC50 threshold 1 ng/mL. Does this binder come in strictly under it? hu15G11.v5 IgG Ala variant E61A (HVR-H2) (antibody, name in Kabat numbering, V domains shown, IgG in cell culture supernatant; Kabat numbers after 52a lie one below the linear count) VH: EVQLVQSGAEVKKPGASVKVSCKASGYTFTSYWMHWVRQAPGQRLEWIGEINPTNGRTNYIAKFKSRATLTVDKSASTAYMELSSLRSEDTAVYYCARGTRAYHYWGQGTMVTVSS VL: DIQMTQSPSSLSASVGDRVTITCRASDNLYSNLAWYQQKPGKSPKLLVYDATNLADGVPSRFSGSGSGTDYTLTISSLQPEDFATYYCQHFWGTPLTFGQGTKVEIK
Result :: true (1)
